Test: Vero cells viability counterscreen for qRT-PCR qHTS assay of selected Zika virus inhibitors
Conditions: CellTiter-Glo ATP luminescence, 24 h; series mostly up to 41.8 µM
Method: Assay Submitters (PI): Avindra Nath, Ph.D., National Institute of Neurological Disorders and Stroke (NINDS), Bethesda, MD Radhakrishnan Padmanabhan, Ph.D., Georgetown University (GU), Washington D.C. […] Vero Cell Viability Assay: Vero cell cytotoxicity was determined using a luminescent readout with CellTiter Glo reagent (Promega, Madison, WI), which is based on measuring the ATP content within cells. […]
Records with an inconclusive call do not appear. Activity calls are given as the source filed them. Calls follow the shape of the dose curve; as a rule, active = well fitted cell-killing curve with a large enough effect; inconclusive = small, poorly fitted or top-dose-only effect, or another doubt; inactive = flat fitted curve, though single readings scatter.
Permitted responses: active, inactive

Before answering, review these 6 worked examples.
> print(dat)
                                   compound  class.name
1  CC(C)(C)Sc1c(CC(C)(C)C(=O)O)n(Cc2ccc(Cl)cc2)c2ccc(OCc3ccc4ccccc4n3)cc12    inactive
2  COc1cc2c(c(O)c1OC/C=C(\C)CC/C=C(/C)CCC=C(C)C)CN(C(CCC(=O)O)C(=O)O)C2=O (configuration not stated)    inactive
3  O=S(=O)(O)c1ccc2cc(N=Nc3cc(S(=O)(=O)O)c4cccnc4c3O)ccc2c1    inactive
4  Cc1cc(C(C#N)c2ccc(Cl)cc2)c(Cl)cc1NC(=O)c1cc(I)cc(I)c1O (configuration not stated)      active
5  COc1cc(/C=C/c2ccccc2)c(C(=O)O)c(O)c1CC=C(C)C    inactive
6  Cc1ccn(-c2ccc(-c3ncco3)cc2)c(=O)c1-c1ccc2nc(N)ncc2c1    inactive

Query compound follows.
Qu. Given "O=C(O)c1ccc(O)c2ncc(N3CCCN(CCc4cccc5ccccc45)CC3)cc12" , state the outcome it received in this test.
Ans. inactive

* * *

Experiment: Vero cells viability counterscreen for qRT-PCR qHTS assay of selected Zika virus inhibitors
Conditions: CellTiter-Glo ATP luminescence, 24 h; series mostly up to 41.8 µM
Inconclusive results are not listed. Calls of active or inactive are those of the source. Calls come from the whole dose curve; as a rule, active = well fitted cell-killing curve with a large enough effect; inconclusive = small, poorly fitted or top-dose-only effect, or another doubt; inactive = flat fitted curve, though single readings scatter.
Permitted responses: active, inactive

compound	class name
O=C(O)CC1CCC(c2ccc(-c3ccc(Nc4ccc(C(F)(F)F)nc4)cn3)cc2)CC1 (stereo not drawn)	inactive
O=C(N/N=C/c1ccc(O)c(O)c1)c1cc2ccccc2cc1O	inactive
O=C(c1cc(O)c(O)c([N+](=O)[O-])c1)c1ccccc1F	inactive
O=C(Nc1ccc([N+](=O)[O-])cc1Cl)c1cc(Cl)ccc1O	inactive
O=C(O)c1ccc2c(ccc3nn(-c4ccc(/C=C/c5ccc(-n6nc7ccc8cc(C(=O)O)ccc8c7n6)cc5[S+](=O)([O-])[O-])c([S+](=O)([O-])[O-])c4)nc32)c1	inactive
N#CC(c1ccnc(OCc2ccc(CN3CCOCC3)cc2)n1)c1nc2ccccc2s1 (stereo not drawn)	inactive
CN(CC(=O)N(Cc1ccc(C2CCCCC2)cc1)c1ccc(C(=O)O)cc1)S(=O)(=O)c1c(F)c(F)c(F)c(F)c1F	active
Oc1c(Cl)cc(Cl)c(Cl)c1Cc1c(O)c(Cl)cc(Cl)c1Cl	active
N#CC1C(=O)Nc2scc(-c3ccc(-c4ccccc4O)cc3)c2C1=O (stereo not drawn)	inactive
Cc1cc(C)cc(C(=O)N(C)[C@H](Cc2ccc(-c3ccccc3)cc2)C(=O)N[C@@H](Cc2c[nH]c3ccccc23)C(=O)O)c1	inactive

Qu. Given "O=C(O)Cn1nnc(-c2cc(N3CCC(Oc4cc(F)ccc4Br)CC3)no2)n1" , state the outcome it received in this test.
Ans. inactive

Qu. Given "CC(C)(O)c1ccccc1CC[C@@H](SCC1(CC(=O)O)CC1)c1cccc(/C=C/c2ccc3ccc(Cl)cc3n2)c1" , state the outcome it received in this test.
Ans. inactive

Qu. Given "N#CC1(c2cccc(C(=O)Nc3cc(Oc4ccc5nc(NC(=O)C6CC6)sc5n4)ccc3F)c2Cl)CC1" , state the outcome it received in this test.
Ans. inactive

Qu. Given "COc1ccccc1-c1cccc(-c2c(O)c3cc(C#N)c(Cl)cc3[nH]c2=O)c1" , state the outcome it received in this test.
Ans. inactive

Qu. Given "CCCCCc1ccc(/C=C/C(=O)Nc2cc(Cl)ccc2C(=O)O)cc1" , state the outcome it received in this test.
Ans. inactive

Numbers sourced from PubChem BioAssay AID1347170.
